Provenance of the data: the RNAGym collection of RNA variant scans (doi:10.7554/elife.90254)

B1: LINE1-mini (parent)
chain: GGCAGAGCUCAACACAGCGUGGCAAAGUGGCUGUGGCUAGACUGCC

- Variants of: B1
- Experimental details: self-cleavage, relative activity (ratio to wild type); higher = more cleavage; in vitro, sequencing; the parent is a self-cleaving ribozyme
Measurement kind: self-cleavage
// return a plain number; no unit text

Example entries begin here.
biosequence="GGCAGAGCUCAACACAGCGUGGCAAAGUGGCAGUGGCUAGACCGCC [U32A U43C]" measurement_kind=self-cleavage meas_value=0.04
biosequence="AGCAGAGCUCAACACAGCGUGGCUAAGUGGCUGUGGCUAGACUGCC [G1A A24U]" measurement_kind=self-cleavage meas_value=1.15
biosequence="GGCAGAGCUCUACACAGCGUGGCAAAGUGCCUGUGGCUAGACUGCC [A11U G30C]" measurement_kind=self-cleavage meas_value=0.13
biosequence="GGCAGAGCUCAACACAGCGUGGCAAAGUGGCUGUCGCUAAACUGCC [G35C G40A]" measurement_kind=self-cleavage meas_value=0.1
biosequence="GGCAGAGCUCAACACAGCGUGGCAAAGUCGCUGUGGCGAGACUGCC [G29C U38G]" measurement_kind=self-cleavage meas_value=0.02

Request: Specify reported self-cleavage for the variant shown: GGCAGAGCUCAACACAGCGUGGCAAAAUGGCUGUGGCUUGACUGCC [G27A A39U]
Result: 0.59

Request: Specify reported self-cleavage for the variant shown: GGCCGAGCUCAACACAGCGUGGCAAAGUGACUGUGGCUAGACUGCC [A4C G30A]
Result: 0.24

Request: Specify reported self-cleavage for the variant shown: GGCAGAGCUCAACACAGCGUGGCAAAGUGGUUGUGGCUAUACUGCC [C31U G40U]
Result: 0.04

Request: Specify reported self-cleavage for the variant shown: GGCCCAGCUCAACACAGCGUGGCAAAGUGGCUGUGGCUAGACUGCC [A4C G5C]
Result: 0.08

Request: Specify reported self-cleavage for the variant shown: GCCAGAGCUAAACACAGCGUGGCAAAGUGGCUGUGGCUAGACUGCC [G2C C10A]
Result: 0.03

Request: Specify reported self-cleavage for the variant shown: GGCAGAGCUCAACACAGCGUGGCAAAGUAUCUGUGGCUAGACUGCC [G29A G30U]
Result: 1.41

Request: Specify reported self-cleavage for the variant shown: AGCAGAGCUGAACACAGCGUGGCAAAGUGGCUGUGGCUAGACUGCC [G1A C10G]
Result: 0.18
